Assay: Inhibition constant was determined for the facilitated transport of [[…]]-thymidine by murine erythrocyte NBMPR-sensitive nucleoside transporter.
Format: functional, Mus musculus
Consider the following molecules; for each one, report its Ki.
Respond with the figure and its unit, in that order.

Need Ki for each of these molecules.
1. O=c1nc2c(cn1[C@H]1C[C@H](O)[C@@H](CO)O1)C(O)CO2 (some centres not stated)
2. COCC(O)c1cn([C@H]2C[C@H](O)[C@@H](CO)O2)c(=O)[nH]c1=O (some centres not stated)
3. O=c1[nH]c(=O)n([C@H]2C[C@H](O)[C@@H](CO)O2)cc1/C=C/I
4. COC(CI)c1cn([C@H]2C[C@H](O)[C@@H](CO)O2)c(=O)[nH]c1=O (some centres not stated)
5. O=c1[nH]c(=O)n([C@H]2C[C@H](O)[C@@H](CO)O2)cc1C(O)CI (some centres not stated)
6. O=c1ccn([C@H]2C[C@H](O)[C@@H](CO)O2)c(=O)[nH]1
7. O=c1[nH]c(=O)n(C2CC(O)C(CO)O2)cc1C(O)C(I)I (configuration not stated)

8000 µM
610 µM
25 µM
35 µM
155 µM
125 µM
220 µM

###

Consider the following compounds; for each one, report its IC50.
System: Vero
Assay: Dose to inhibit plaque formation in vero cells infected with herpes simplex virus type-1 (HSV-1,strainJLJ) was determined
Format: functional
Conditions: Chlorocebus sabaeus, read-out: ID50 (the source's name)

Reference set, count: 4
Query IC50 on Vero for O=c1[nH]c(=O)n([C@@H]2O[C@H](CO)[C@@H](O)[C@H]2F)cc1C(O)CI (stereo partly specified)
> 100 µg/mL

Query IC50 on Vero for O=c1[nH]c(=O)n(C2CC(O)C(CO)O2)cc1C(O)C(I)I (stereo unspecified)
> 10 µg/mL

Query IC50 on Vero for COC(CI)c1cn(C2O[C@H](CO)[C@@H](O)[C@H]2O)c(=O)[nH]c1=O (stereo partly specified)
> 100 µg/mL

Query IC50 on Vero for O=c1[nH]c(=O)n([C@H]2C[C@H](O)[C@@H](CO)O2)cc1/C=C/I
< 0.1 µg/mL

Need IC50 for each of these compounds.
1. COC(CI)c1cn([C@@H]2O[C@H](CO)[C@@H](O)[C@H]2F)c(=O)[nH]c1=O (stereo partly specified)
2. COCC(O)c1cn([C@H]2C[C@H](O)[C@@H](CO)O2)c(=O)[nH]c1=O (stereo partly specified)
3. O=c1[nH]c(=O)n([C@H]2C[C@H](O)[C@@H](CO)O2)cc1C(O)CI (stereo partly specified)
4. O=c1[nH]c(=O)n(C2O[C@H](CO)[C@@H](O)[C@H]2O)cc1C(O)CI (stereo partly specified)
5. O=c1nc2c(cn1[C@H]1C[C@H](O)[C@@H](CO)O1)C(O)CO2 (stereo partly specified)
6. C=Cc1cn([C@@H]2O[C@H](CO)[C@@H](O)[C@H]2F)c(=O)[nH]c1=O
7. COC(CI)c1cn([C@H]2C[C@H](O)[C@@H](CO)O2)c(=O)[nH]c1=O (stereo partly specified)

> 100 µg/mL
> 10 µg/mL
> 10 µg/mL
> 100 µg/mL
> 100 µg/mL
0.1 µg/mL
0.1 µg/mL

###

Tested on: P388
Test: In vivo cytotoxicity was determined against P388 mouse leukemia cells expressed as % treated/control
Type: functional
readout-kind: T/C (%)
One number for each entry, in %.

Reference set, count: 3
Any idea what its T/C is? The molecule is O=c1[nH]c(=O)n(C2CC(O)C(CO)O2)cc1C(O)C(I)I (centres undefined)
112

Any idea what its T/C is? The molecule is O=c1[nH]c(=O)n([C@H]2C[C@H](O)[C@@H](CO)O2)cc1C(O)CI (some centres undefined)
98

Any idea what its T/C is? The molecule is COC(CI)c1cn([C@H]2C[C@H](O)[C@@H](CO)O2)c(=O)[nH]c1=O (some centres undefined)
114

Consider now this further molecule.
Any idea what its T/C is? The molecule is COCC(O)c1cn([C@H]2C[C@H](O)[C@@H](CO)O2)c(=O)[nH]c1=O (some centres undefined)
103
